system: LKB1; construct: gene STK11; conditions: concentration: 1 μM, replicates: in singlicate; n = 1;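 also: KINOMEscan kinase panel screen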
This listing pairs molecules with measured %Inh.
Unit % implied. Number only.

Give a short answer stating reported %Inh for COc1cc(Nc2ccnc3cc(-c4ccncc4)ccc23)cc(OC)c1OC.Cl [GW494610] .
0

Give a short answer stating reported %Inh for Cl.Cl.NCC(NC(=O)c1cc(-c2cccnc2)c(-c2ccnc3[nH]ccc23)s1)c1ccccc1 (stereo not shown) [GSK1323434] .
22

Give a short answer stating reported %Inh for O=C(Nc1n[nH]c2nc(-c3ccccc3)ccc12)C1CC1 [SB-708999] .
0

Give a short answer stating reported %Inh for CN(c1ccc(F)c(NC(=O)c2cccc(OC(C)(C)C#N)c2Cl)c1)c1ccc2nc(NC(=O)C3CC3)sc2n1 .
11

Give a short answer stating reported %Inh for COc1cc(Nc2nccc(N3CCC(NS(=O)(=O)c4ccc(NC(C)=O)cc4)CC3)n2)cc(OC)c1OC [GSK1379825] .
0

Give a short answer stating reported %Inh for Cc1ccc(NC(=O)c2cccc(N3CCCCC3)c2)cc1-c1ccc(C(=O)NCC2CC2)cc1 [GSK1917008] .
0

All values here come from paper PMC5540273.
